Values were extracted from patent US20260201008A1.

Examples of binders with documented pEC50 hSCTR follow.
- target-or-system: human secretin receptor (hSCTR) (human, UniProt P47872 23-440)
- Sequence (P47872 23-440): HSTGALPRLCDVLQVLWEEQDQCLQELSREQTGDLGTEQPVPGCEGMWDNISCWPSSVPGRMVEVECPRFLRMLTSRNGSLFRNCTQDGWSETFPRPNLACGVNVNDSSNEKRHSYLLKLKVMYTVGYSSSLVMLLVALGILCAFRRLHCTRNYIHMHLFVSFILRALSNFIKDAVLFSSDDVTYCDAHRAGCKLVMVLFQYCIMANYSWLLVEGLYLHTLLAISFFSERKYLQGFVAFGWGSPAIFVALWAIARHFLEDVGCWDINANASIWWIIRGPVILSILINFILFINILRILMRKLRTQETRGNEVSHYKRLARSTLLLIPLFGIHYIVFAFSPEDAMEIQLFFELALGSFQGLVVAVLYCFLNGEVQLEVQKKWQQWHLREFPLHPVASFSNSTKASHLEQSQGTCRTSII
- test-summary: cell-based or functional assay
Numbered stars: 1 amine (or outer) side, 2 acyl side, 3 side chain; on linkers, the order of the positions; unused ones are H or OH. Square brackets hold non-standard residues; d marks the D form. Side chains are listed from the residue outwards. Ends that are not written are not given here. * marks the point of attachment. C20 diacid = O=C(O)CCCCCCCCCCCCCCCCCCC(=O)*; γGlu = O=C(O)[C@H](CCC(=O)[*:2])N[*:1]; AEEA = NCCOCCOCC(=O)O; Aib = CC(C)(N)C(=O)O

# annotated cases, reported pEC50 hSCTR shown
H[Aib]EGTFTSDVSFLK([AEEA-AEEA-γGlu-C20 diacid])EEAAEQRFLEHLV-NH2 [SEQ ID NO: 56]; 5.1 -log M
H[Aib]EGTFTSDVSYLKEEA[Aib]AQRFLEHLV-NH2 (not fully specified (residue 14)) [SEQ ID NO: 146]; 5.7 -log M

Moving on to the next binder.
Summary for this binder, H[Aib]EGTFTSDPSYLKEEA[Aib]LQRFLEHLV-NH2 (not fully specified (residue 14)) [SEQ ID NO: 121] : pEC50 hSCTR is 4.4 -log M
